Listed here: items and their measured MCC.
# ASSAY_METHOD_TEXT: Cytotoxicity against human HeLa cells assessed as alteration of cell morphology by microscopic analysis
# Type: cell-based

Some entries whose results are on file:
COMPOUND	OBSERVABLE	RESULT
C/C(=C\CP(=O)(N[C@@H](C)C(=O)OC(C)C)Oc1cccc2c1CCCC2)Cn1ccc(=O)[nH]c1=O (some centres not stated)	MCC	> 100 µM
C/C(=C\CP(=O)(N[C@@H](C)C(=O)OCc1ccccc1)Oc1cccc2ccccc12)Cn1ccc(=O)[nH]c1=O (some centres not stated)	MCC	> 100 µM
C/C(=C/CP(=O)(N[C@@H](C)C(=O)OC(C)C)Oc1cccc2c1CCCC2)Cn1ccc(=O)[nH]c1=O (some centres not stated)	MCC	> 100 µM
C/C(=C\CP(=O)(N[C@@H](C)C(=O)OCc1ccccc1)Oc1cccc2c1CCCC2)Cn1ccc(=O)[nH]c1=O (some centres not stated)	MCC	≥ 100 µM
C/C(=C\CP(=O)(N[C@@H](C)C(=O)OCc1ccccc1)Oc1cccc2c1CCCC2)Cn1cc(C)c(=O)[nH]c1=O (some centres not stated)	MCC	≥ 100 µM
C/C(=C\CP(=O)(N[C@@H](C)C(=O)OC(C)C)Oc1cccc2ccccc12)Cn1ccc(=O)[nH]c1=O (some centres not stated)	MCC	> 100 µM
C/C(=C\CP(=O)(N[C@@H](C)C(=O)OC(C)C)Oc1cccc2ccccc12)Cn1cc(C)c(=O)[nH]c1=O (some centres not stated)	MCC	≥ 20 µM
C/C(=C/CP(=O)(N[C@@H](C)C(=O)OC(C)C)Oc1cccc2ccccc12)Cn1cc(C)c(=O)[nH]c1=O (some centres not stated)	MCC	≥ 20 µM

Requested read-out: MCC. Entry: C/C(=C\CP(=O)(N[C@@H](C)C(=O)OCc1ccccc1)Oc1ccccc1)Cn1cc(C)c(=O)[nH]c1=O (some centres not stated) > 100 µM

Look at this compound and give its reported MCC. C/C(=C\CP(=O)(N[C@@H](C)C(=O)OCc1ccccc1)Oc1ccccc1)Cn1ccc(=O)[nH]c1=O (some centres not stated) > 100 µM

Field request: MCC | item: C/C(=C/CP(=O)(N[C@@H](C)C(=O)OC(C)C)Oc1cccc2c1CCCC2)Cn1cc(C)c(=O)[nH]c1=O (some centres not stated) > 100 µM

# lookup: MCC of C/C(=C\CP(=O)(N[C@@H](C)C(=O)OCc1ccccc1)Oc1cccc2ccccc12)Cn1cc(C)c(=O)[nH]c1=O (some centres not stated) > 100 µM

Entry under review: C/C(=C\CP(=O)(N[C@@H](C)C(=O)OC(C)C)Oc1cccc2c1CCCC2)Cn1cc(C)c(=O)[nH]c1=O (some centres not stated) . Reported MCC? ≥ 20 µM

Using the record for NC(=O)c1ncn([C@@H]2O[C@H](CO)[C@@H](O)[C@H]2O)n1 , report its MCC. > 250 µM

Record request: MCC value, item C/C(=C/CP(=O)(N[C@@H](C)C(=O)OCc1ccccc1)Oc1cccc2c1CCCC2)Cn1cc(C)c(=O)[nH]c1=O (some centres not stated) ≥ 20 µM

Which value of MCC has been reported for C/C(=C\CP(=O)(N[C@@H](C)C(=O)OC(C)C)Oc1ccccc1)Cn1cc(C)c(=O)[nH]c1=O (some centres not stated) in the records? ≥ 20 µM

// MCC lookup, key: C/C(=C\CP(=O)(N[C@@H](C)C(=O)OC(C)C)Oc1ccccc1)Cn1ccc(=O)[nH]c1=O (some centres not stated) > 100 µM

----------
Catalogue of MCC readings, one per entry.
# ASSAY_METHOD_TEXT: Cytotoxicity against HEL cells assessed as alteration of cell morphology by microscopic analysis
# Format: cell-based
# DETAILS: human

# lookup: MCC of C/C(=C\CP(=O)(N[C@@H](C)C(=O)OC(C)C)Oc1ccccc1)Cn1ccc(=O)[nH]c1=O (stereo not given in full) > 100 µM

Which MCC is listed for Nc1nc2c(ncn2COCCO)c(=O)[nH]1 ? 250 to 440 µM

What measured MCC goes with Nc1ccn([C@H]2CC[C@@H](CO)O2)c(=O)n1 ? > 250 µM

I am curious: what MCC value has been reported for C/C(=C\CP(=O)(N[C@@H](C)C(=O)OCc1ccccc1)Oc1ccccc1)Cn1cc(C)c(=O)[nH]c1=O (stereo not given in full) ? > 100 µM

What MCC value was documented for this molecule, C/C(=C/CP(=O)(N[C@@H](C)C(=O)OC(C)C)Oc1cccc2c1CCCC2)Cn1ccc(=O)[nH]c1=O (stereo not given in full) ? 100 µM

----------
Listed below: pEC50 values for each entry.
# System: Yellow fever virus
# ASSAY_METHOD_TEXT: Antiviral activity against Yellow fever virus infected in African green monkey Vero cells assessed as inhibition of virus-induced cytopathicity
# Type: functional, organism-based
pEC50: −log10 of the molar value.

COMPOUND	pEC50
C/C(=C\CP(=O)(N[C@@H](C)C(=O)OC(C)C)Oc1cccc2c1CCCC2)Cn1ccc(=O)[nH]c1=O (stereo partly drawn)	< 4.00
C/C(=C/CP(=O)(N[C@@H](C)C(=O)OC(C)C)Oc1cccc2c1CCCC2)Cn1ccc(=O)[nH]c1=O (stereo partly drawn)	< 4.00
C/C(=C/CP(=O)(N[C@@H](C)C(=O)OC(C)C)Oc1cccc2c1CCCC2)Cn1cc(C)c(=O)[nH]c1=O (stereo partly drawn)	4.24
C/C(=C\CP(=O)(N[C@@H](C)C(=O)OC(C)C)Oc1ccccc1)Cn1ccc(=O)[nH]c1=O (stereo partly drawn)	< 4.00

Query (compound): C/C(=C\CP(=O)(N[C@@H](C)C(=O)OCc1ccccc1)Oc1cccc2ccccc12)Cn1cc(C)c(=O)[nH]c1=O (stereo partly drawn) ; field requested: pEC50 < 4.00

----------
# Test system: Influenza B virus
# ASSAY_METHOD_TEXT: Antiviral activity against Influenza B virus infected in MDCK cells assessed as inhibition of virus-induced cytopathicity by MTS assay
# Format: functional, organism-based
Below, each entry is listed with its recorded EC50.

MOLECULE	RESULT
C/C(=C\CP(=O)(N[C@@H](C)C(=O)OC(C)C)Oc1cccc2ccccc12)Cn1ccc(=O)[nH]c1=O (stereo not given in full)	> 100 µM
C/C(=C\CP(=O)(N[C@@H](C)C(=O)OC(C)C)Oc1ccccc1)Cn1cc(C)c(=O)[nH]c1=O (stereo not given in full)	> 100 µM
CC(N)C12CC3CC(CC(C3)C1)C2 (stereo not given)	> 200 µM
C/C(=C\CP(=O)(N[C@@H](C)C(=O)OC(C)C)Oc1ccccc1)Cn1ccc(=O)[nH]c1=O (stereo not given in full)	> 100 µM

Here is another molecule to look at.
Could you share which EC50 value was measured for C/C(=C/CP(=O)(N[C@@H](C)C(=O)OC(C)C)Oc1cccc2c1CCCC2)Cn1cc(C)c(=O)[nH]c1=O (stereo not given in full) ? > 100 µM

----------
# System: Vaccinia virus
# ASSAY_METHOD_TEXT: Antiviral activity against Vaccinia virus infected in HEL cells assessed as inhibition of virus-induced cytopathicity
# Assay type: functional, organism-based
# DETAILS: Orthopoxvirus vaccinia
pEC50: −log10 of the molar value.
OBSERVABLE: pEC50

Recorded results for 2 compounds are shown here.
COMPOUND	RESULT
C/C(=C\CP(=O)(N[C@@H](C)C(=O)OCc1ccccc1)Oc1ccccc1)Cn1cc(C)c(=O)[nH]c1=O (stereo partly drawn)	< 4.00
Nc1ccn(C[C@@H](CO)OCP(=O)(O)O)c(=O)n1	4.43

// moving on: another record for pEC50
# lookup: pEC50 of C/C(=C\CP(=O)(N[C@@H](C)C(=O)OC(C)C)Oc1ccccc1)Cn1ccc(=O)[nH]c1=O (stereo partly drawn) < 4.00

----------
# ASSAY_METHOD_TEXT: Cytotoxicity against MDCK cells assessed as alteration of cell morphology by microscopic analysis
# Assay type: cell-based, Canis lupus familiaris
# DETAILS: dog
List of MCC values.

Illustrative cases are given below, each with its answer.
MOLECULE	MCC
CCOC(=O)C1=C[C@@H](OC(CC)CC)[C@H](NC(C)=O)[C@@H](N)C1 [OSELTAMIVIR]	> 100 µM
NC12CC3CC(CC(C3)C1)C2 [AMANTADINE]	> 100 µM
C/C(=C\CP(=O)(N[C@@H](C)C(=O)OC(C)C)Oc1cccc2c1CCCC2)Cn1ccc(=O)[nH]c1=O (some centres undefined)	> 100 µM

Now for the molecule whose MCC we want.
Name the recorded MCC for C/C(=C/CP(=O)(N[C@@H](C)C(=O)OC(C)C)Oc1cccc2ccccc12)Cn1cc(C)c(=O)[nH]c1=O (some centres undefined) . 100 µM

----------
# ASSAY_METHOD_TEXT: Cytotoxicity against MDCK cells assessed as alteration of cell morphology by microscopic analysis
# Assay type: cell-based, Canis lupus familiaris
# DETAILS: dog
OBSERVABLE: MCC

Solved entries (count: 4):
COMPOUND	MCC
C/C(=C\CP(=O)(N[C@@H](C)C(=O)OCc1ccccc1)Oc1cccc2c1CCCC2)Cn1cc(C)c(=O)[nH]c1=O (stereo partly specified)	> 100 µM
CC(N)C12CC3CC(CC(C3)C1)C2 (stereo unspecified) [RIMANTADINE]	> 200 µM
C/C(=C\CP(=O)(N[C@@H](C)C(=O)OC(C)C)Oc1cccc2ccccc12)Cn1cc(C)c(=O)[nH]c1=O (stereo partly specified)	> 100 µM
C/C(=C\CP(=O)(N[C@@H](C)C(=O)OCc1ccccc1)Oc1ccccc1)Cn1ccc(=O)[nH]c1=O (stereo partly specified)	> 100 µM

Which MCC value is on record for C/C(=C/CP(=O)(N[C@@H](C)C(=O)OC(C)C)Oc1cccc2c1CCCC2)Cn1cc(C)c(=O)[nH]c1=O (stereo partly specified) ? 100 µM

Looking for the measured MCC of C/C(=C\CP(=O)(N[C@@H](C)C(=O)OC(C)C)Oc1cccc2c1CCCC2)Cn1cc(C)c(=O)[nH]c1=O (stereo partly specified) , can you help? > 100 µM

Give its MCC value. Item: C/C(=C\CP(=O)(N[C@@H](C)C(=O)OCc1ccccc1)Oc1cccc2c1CCCC2)Cn1ccc(=O)[nH]c1=O (stereo partly specified) > 100 µM

Find the recorded MCC belonging to C/C(=C\CP(=O)(N[C@@H](C)C(=O)OCc1ccccc1)Oc1cccc2ccccc12)Cn1cc(C)c(=O)[nH]c1=O (stereo partly specified) and report it. > 100 µM

What does the data say about its MCC? Entry: C/C(=C\CP(=O)(N[C@@H](C)C(=O)OC(C)C)Oc1ccccc1)Cn1ccc(=O)[nH]c1=O (stereo partly specified) > 100 µM

Quick check: MCC of C/C(=C/CP(=O)(N[C@@H](C)C(=O)OCc1ccccc1)Oc1cccc2c1CCCC2)Cn1cc(C)c(=O)[nH]c1=O (stereo partly specified) ? > 100 µM

If you can, please state the reported MCC value of NC(=O)c1ncn([C@@H]2O[C@H](CO)[C@@H](O)[C@H]2O)n1 [RIBAVIRIN] . > 100 µM

Which value of MCC has been reported for C/C(=C/CP(=O)(N[C@@H](C)C(=O)OC(C)C)Oc1cccc2c1CCCC2)Cn1ccc(=O)[nH]c1=O (stereo partly specified) in the records? 100 µM

What value of MCC has been recorded for this entry: C/C(=C\CP(=O)(N[C@@H](C)C(=O)OCc1ccccc1)Oc1cccc2ccccc12)Cn1ccc(=O)[nH]c1=O (stereo partly specified) > 100 µM

Form field: reported MCC of C/C(=C\CP(=O)(N[C@@H](C)C(=O)OC(C)C)Oc1ccccc1)Cn1cc(C)c(=O)[nH]c1=O (stereo partly specified) > 100 µM

Please report the recorded MCC for C/C(=C\CP(=O)(N[C@@H](C)C(=O)OCc1ccccc1)Oc1ccccc1)Cn1cc(C)c(=O)[nH]c1=O (stereo partly specified) . > 100 µM

If you can, please state the reported MCC value of C/C(=C\CP(=O)(N[C@@H](C)C(=O)OC(C)C)Oc1cccc2ccccc12)Cn1ccc(=O)[nH]c1=O (stereo partly specified) . > 100 µM
